- System: 922993-354-T-J3-PDC complex spheroid viability;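 note: spheroids exposed to the agents for one week; 100% = DMSO vehicle control wells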
- procedure.summary: Anticancer human tumor 922993-354-T-J3-PDC patient-derived endometrial carcinoma cell line growth inhibition [POLQ]
- protocol.conditions: second compound 10 µM; first compound 0.316 µM; stronger effect = lower value
quantity: viability, T/C (%)
Use % as the unit, but write only the number.

Check out these entries, answers already filled in.
[
  {
    "compound": "CCc1c2c(nc3ccc(O)cc13)-c1cc3c(c(=O)n1C2)COC(=O)[C@]3(O)CC + Cc1cccc(N(C)C(=O)C2C(O)CCN2c2nc(C)cc(C(F)(F)F)c2C#N)c1",
    "viability, T/C, %": 13.9
  },
  {
    "compound": "O=C(Nc1ccc(O)c(NS(=O)(=O)c2ccc(F)cc2)c1)c1ccc(-c2ccccc2)cc1 + Nc1ccc(C#CCN(C(=O)Cc2ncc(C(F)(F)F)cc2C(F)(F)F)c2ccc(F)cc2)nn1",
    "viability, T/C, %": 95
  },
  {
    "compound": "COc1cc(C2c3cc4c(cc3C(OC3OC5COC(C)OC5C(O)C3O)C3COC(=O)C23)OCO4)cc(OC)c1O (stereo not given) + Cc1cccc(N(C)C(=O)C2C(O)CCN2c2nc(C)cc(C(F)(F)F)c2C#N)c1",
    "viability, T/C, %": 92.1
  },
  {
    "compound": "C#Cc1c(F)ccc2cc(O)cc(-c3ncc4c(N5CC6CCC(C5)N6)nc(OCC56CCCN5CC(F)C6)nc4c3F)c12 (stereo not given) + Nc1ccc(C#CCN(C(=O)Cc2ncc(C(F)(F)F)cc2C(F)(F)F)c2ccc(F)cc2)nn1",
    "viability, T/C, %": 100
  },
  {
    "compound": "CC(C)n1c(=O)n(C)c2cnc3cc(F)c(-c4ccc(OCCCN5CCCCC5)nc4)cc3c21 + COC1C(OC(N)=O)C(O)C(Oc2ccc3c(O)c(NC(=O)c4ccc(O)c(CC=C(C)C)c4)c(=O)oc3c2C)OC1(C)C",
    "viability, T/C, %": 89.6
  }
]

Name the recorded viability, T/C of the compound listed here: COc1cccc(OCCCN)c1-c1cc(Nc2cnc(C#N)cn2)n[nH]1 + COC1C(OC(N)=O)C(O)C(Oc2ccc3c(O)c(NC(=O)c4ccc(O)c(CC=C(C)C)c4)c(=O)oc3c2C)OC1(C)C
16.1

Identify viability, T/C associated with the compound C#Cc1c(F)ccc2cc(O)cc(-c3ncc4c(N5CC6CCC(C5)N6)nc(OCC56CCCN5CC(F)C6)nc4c3F)c12 (stereo not given) + Cc1cccc(N(C)C(=O)C2C(O)CCN2c2nc(C)cc(C(F)(F)F)c2C#N)c1
98.1

Retrieve viability, T/C measured for COc1cc(C2c3cc4c(cc3C(OC3OC5COC(C)OC5C(O)C3O)C3COC(=O)C23)OCO4)cc(OC)c1O (stereo not given) + COC1C(OC(N)=O)C(O)C(Oc2ccc3c(O)c(NC(=O)c4ccc(O)c(CC=C(C)C)c4)c(=O)oc3c2C)OC1(C)C and print it.
89.4

Return viability, T/C (reported value) for this compound: O=C(Nc1ccc(O)c(NS(=O)(=O)c2ccc(F)cc2)c1)c1ccc(-c2ccccc2)cc1 + COC1C(OC(N)=O)C(O)C(Oc2ccc3c(O)c(NC(=O)c4ccc(O)c(CC=C(C)C)c4)c(=O)oc3c2C)OC1(C)C
97.8

Supply viability, T/C value. Item: C#Cc1c(F)ccc2cc(O)cc(-c3ncc4c(N5CC6CCC(C5)N6)nc(OCC56CCCN5CC(F)C6)nc4c3F)c12 (stereo not given) + COC1C(OC(N)=O)C(O)C(Oc2ccc3c(O)c(NC(=O)c4ccc(O)c(CC=C(C)C)c4)c(=O)oc3c2C)OC1(C)C
90.4

Retrieve viability, T/C measured for COc1cc(C2c3cc4c(cc3C(OC3OC5COC(C)OC5C(O)C3O)C3COC(=O)C23)OCO4)cc(OC)c1O (stereo not given) + Nc1ccc(C#CCN(C(=O)Cc2ncc(C(F)(F)F)cc2C(F)(F)F)c2ccc(F)cc2)nn1 and print it.
91.2

For the compound CC1COCCN1c1cc(C2(O)CC3CCC(C2)O3)c2cnn(-c3ccn[nH]3)c2n1 (stereo not given) + COC1C(OC(N)=O)C(O)C(Oc2ccc3c(O)c(NC(=O)c4ccc(O)c(CC=C(C)C)c4)c(=O)oc3c2C)OC1(C)C , give its reported viability, T/C.
60.5

Return value of viability, T/C for input COc1cc2cc(C(=O)CCC(=O)O)sc2cc1OC + COC1C(OC(N)=O)C(O)C(Oc2ccc3c(O)c(NC(=O)c4ccc(O)c(CC=C(C)C)c4)c(=O)oc3c2C)OC1(C)C , no commentary.
101

Give the measured viability, T/C for COc1cccc2c1C(=O)c1c(O)c3c(c(O)c1C2=O)CC(O)(C(=O)CO)CC3OC1CC(N)C(O)C(C)O1 (stereo not given) + Cc1cccc(N(C)C(=O)C2C(O)CCN2c2nc(C)cc(C(F)(F)F)c2C#N)c1
38.3

Could you please provide reported viability, T/C for COc1ccc([C@@H](O)c2cc(-c3ncnc4cc(N5CCOCC5)ccc34)c(F)cc2Cl)nn1 + COC1C(OC(N)=O)C(O)C(Oc2ccc3c(O)c(NC(=O)c4ccc(O)c(CC=C(C)C)c4)c(=O)oc3c2C)OC1(C)C ? Thanks!
107
